Tested on: NCI-H522 lung
Assay: NCI-60 one-dose screen, 48 h
Details: 10 µM unless noted
The panel holds about 83,000 compounds, 20% with a hit somewhere; the sample as a whole holds those more often. Calls of active or inactive are those of the source. How the source made its calls: active means growth percent below 10; inactive means the rest.
// classify into TRUE (active), FALSE (inactive)

Some entries whose results are on file:
O=C(Cn1c(/C=C/c2ccc([N+](=O)[O-])cc2)nc2ccccc2c1=O)Nc1ccccc1 = FALSE
CCCCCCCCc1ccc(C(=O)Nc2ccc(C)cc2C(=O)O)cc1 = FALSE
ClC(Cn1ncc2c(Nc3cccc(Br)c3)nc(SCCN3CCOCC3)nc21)c1ccc(Br)cc1 (centres undefined) = FALSE
c1ccc(CSc2nnc(-c3ccc4nc(-c5ccccc5)[nH]c4c3)o2)cc1 = FALSE

Now take the following compound into account.
For `COc1ccc(-c2nc3ccccc3n2CC(=O)N=Nc2c(O)[nH]c3ccc(Br)cc23)cc1` , what call appears in the results of this test?
FALSE

* * *

System: A498 renal
Test: NCI-60 one-dose screen, 48 h
Settings: 10 µM unless noted
About 83,000 compounds went through this panel and 20% of them were active in at least one assay; those are over-represented in the sample as a whole. Calls of active or inactive are those of the source. Rule for the calls: active = growth percent below 10; inactive = the rest.
// classify into YES (active), NO (inactive)

Some entries whose results are on file:
C[C@@H]1CN(c2ccc3ncc(C#Cc4cncc(C(=O)Nc5ccc(CN6CCN(C)CC6)c(C(F)(F)F)c5)c4)n3n2)C[C@@H](C)O1 = YES
COc1nc(N)ncc1-c1ccc2ncnc(N3CCc4cc(F)c(Cl)cc43)c2c1 = YES
O=C(Nc1ccc(-c2ccc3c(c2)NC(=O)/C3=C\c2ccc[nH]2)cc1)Nc1cccc(Cl)c1 = NO

Now take the following compound into account.
For `COc1ccc(/C=C/c2nc3ccccc3c(=O)n2CC(=O)Nc2ccccc2)cc1` , what call appears in the results of this test?
YES

* * *

Test system: NCI-H522 lung
Test: NCI-60 one-dose screen, 48 h (100 = growth as untreated, 0 = no growth, -100 = all killed)
Conditions: 10 µM unless noted
The panel holds about 83,000 compounds, 20% with a hit somewhere; the sample as a whole holds those more often.
Label true when growth is strictly below 90%; at or above that, label false.

Some entries whose results are on file:
Cc1ccc(C(=O)Nc2ccc(-n3ccnc3)c(C(F)(F)F)c2)cc1C#Cc1cnc2cccnn12 = true
COc1ccc2ccccc2c1/C=C1\SC(=Nc2ccc(O)cc2)NC1=O = true
COc1c2c(cc3c1C(CCc1ccccc1)N(C)CC3)OCO2 (stereo not given) = true
COc1ccc2[nH]cc(-c3cc4nc(-c5cn(C)c6ncc(Br)cc56)cc(N)n4n3)c2c1 = true
NC(=O)c1ccc(-c2ccc3ncnc(N4CCc5cc(F)c(Cl)cc54)c3c2)cn1 = false

Item `NS(=O)(=O)c1ccc(Nc2nc(N/N=C/c3cc(Br)c(O)c(Br)c3)nc(Nc3ccccc3)n2)cc1` : growth beneath 90%, strictly?
true

Item `CN1CCc2c(sc3ncnc(N/N=C/c4cccc(Cl)c4Cl)c23)C1` : growth beneath 90%, strictly?
true

Item `COC(=O)c1c(C(=O)OC)c2ccc3c4ccccc4ccc3n2c1C(=O)OC` : growth beneath 90%, strictly?
false

* * *

Overview of reported growth across a group of molecules:
Test system: LOX IMVI melanoma
Test: NCI-60 one-dose screen, 48 h (100 = growth as untreated, 0 = no growth, -100 = all killed)
Details: 10 µM unless noted
The panel holds about 83,000 compounds, 20% with a hit somewhere; the sample as a whole holds those more often.
Note: unit % is implicit; provide only the numeric part.

Would you please look over these solved cases?
COc1ccccc1Nc1nnc(-c2c[nH]c3ccccc23)o1 = 7.77
COc1cc(C2CC(c3ccc(S(=O)(=O)NCCNc4nc(N(C)C)nc(N5CCOCC5)n4)cc3)=Nc3c(N)nc(N)nc3N2)cc(OC)c1OC (stereo unspecified) = 94.3
Fc1ccccc1CNc1nc(SCCN2CCOCC2)nc2c1cnn2CC(Cl)c1ccc(Br)cc1 (stereo unspecified) = 1.88
CCc1ccccc1NC(=O)N/C(N)=N/c1nc2ccccc2s1 = -53.7
CCCCCCCCCc1ccc(C(=O)Nc2cc(C)ccc2C(=O)OC)cc1 = 102

Consider now this further molecule.
For `COc1ccc(Nc2ncnc3sc4c(c23)CCN(Cc2ccccc2)C4)cc1` , what is its reported growth?
52.2

* * *

System: SNB-19 CNS
Assay: NCI-60 one-dose screen, 48 h (100 = growth as untreated, 0 = no growth, -100 = all killed)
Settings: 10 µM unless noted
About 83,000 compounds went through this panel and 20% of them were active in at least one assay; those are over-represented in the sample as a whole.
READOUT NAME: growth (%)
Note: unit % is implicit; provide only the numeric part.

Would you please look over these solved cases?
CCc1ccccc1-c1nc(CN[C@@H]2C[C@@H]3C[C@H]([C@H]2C)C3(C)C)c(C)o1 = -81.7
N#Cc1c(NC(=O)N2CCOCC2)n(-c2ccc(OC(F)(F)F)cc2)c2cc(F)ccc12 = 117
Cc1cccc(/C=C/c2ccc(NC(=S)NCCCCN(C)C)cc2)c1 = -84
CCN1C(=O)N(CC)C2NNC(Sc3c(C(=O)O)c4ccccc4n(CCC(C)C)c3=O)=NC21 (stereo not given) = 15.5

# value lookup — system SNB-19 CNS, readout growth, item `CCC(=O)c1cc(C(=O)OC)c2ccc3c4ccccc4ccc3n12`
66.9

* * *

Overview of reported growth across a group of compounds:
Tested on: SNB-19 CNS
Assay: NCI-60 one-dose screen, 48 h (100 = growth as untreated, 0 = no growth, -100 = all killed)
Details: 10 µM unless noted
The panel holds about 83,000 compounds, 20% with a hit somewhere; the sample as a whole holds those more often. Active and inactive are the calls of the source. The calls were made as follows: active = growth percent below 10; inactive = the rest.

S=C(Nc1ccc(OCc2nc3ccc(Cl)cc3[nH]2)cc1)NC1CCCCC1 = 10% (inactive)
O=C(Nc1ccc(-c2ccc3c(c2)NC(=O)/C3=C\c2ccc[nH]2)cc1)Nc1ccc(Cl)c(C(F)(F)F)c1 = 72.9% (inactive)
COc1ccc(-c2cc(C)nc3[nH]c(=O)sc23)cc1 = 53.6% (inactive)
COc1ccc(C(=O)NNC(=O)CSc2nc3sc4c(c3c(=O)n2-c2ccc(Cl)cc2)CCCC4)cc1 = 63.3% (inactive)

For `Cc1cccc(-c2ccccc2Oc2ccc3nnc(Cl)n3n2)c1` , what is its reported growth?
97.8% (inactive)

For `Cc1ccc(C(=O)Nc2cc(-c3ccncc3)cc(C(F)(F)F)c2)cc1C#Cc1cnc2cccnn12` , what is its reported growth?
92.9% (inactive)

For Cc1ccc(C2CC(c3ccc(NC(=O)Nc4ccccc4)cc3)=NN2c2ccc(S(N)(=O)=O)cc2)cc1 (centres undefined) , what is its reported growth?
-99.8% (active)

For `COc1ccc(/C=C/c2nc3ccccc3c(=O)n2CC(=O)Nc2ccccc2)cc1` , what is its reported growth?
29.1% (inactive)

For `CC(=O)C[n+]1cccc2c3ccccc3ccc21` , what is its reported growth?
69.8% (inactive)

* * *

Overview of reported growth across a group of compounds:
Tested on: NCI-H322M lung
Assay: NCI-60 one-dose screen, 48 h (100 = growth as untreated, 0 = no growth, -100 = all killed)
Settings: 10 µM unless noted
Compounds without any hit were thinned out: in the full panel of roughly 83,000, 20% have a hit. The source made the active and inactive calls. The calls were made as follows: active = growth percent below 10; inactive = the rest.

Would you please look over these solved cases?
COc1sc(/C=N/NC(=O)c2[nH]c3ccc(Br)cc3c2-c2ccccc2)cc1Br = 31.4% (inactive)
COc1cc(CNC(=O)C[C@H](C)CCC=C(C)C)ccc1OCc1cn(-c2ccc(Cl)c(Cl)c2)nn1 = 82.5% (inactive)
O=C(CSc1nnc(-c2ccc(-c3nc4ccc(Cl)cc4[nH]3)cc2)o1)Nc1ccc(Cl)cc1 = 32.9% (inactive)
Cc1ccc(N=Nc2c(N)nn3c(-c4cc5ccccc5oc4=O)ccnc23)cc1 = 51.6% (inactive)

Consider now this further compound.
For `Cc1ccc(C(=O)C[n+]2cccc3c4ccccc4ccc32)cc1` , what is its reported growth?
43.3% (inactive)

* * *

System: MDA-MB-231 breast
Experiment: NCI-60 one-dose screen, 48 h
Details: 10 µM unless noted
This is part of a sample that, as a whole, favours compounds with a hit. Of some 83,000 tested, about 20% had one in any assay. Calls of active or inactive are those of the source. How the source made its calls: active means growth percent below 10; inactive means the rest.
// classify into TRUE for active, FALSE for inactive

Some entries whose results are on file:
Nc1cc2ccccc2c(=O)n1NC(=O)c1ccc(Br)cc1 = FALSE
CCCCCCCCc1cccc(CC(=O)Nc2ccc(C)cc2C(=O)O)c1 = FALSE
Cc1[nH]nc2ccc3nc(-c4cnn(CCO)c4)c4c(c3c12)CCCC4 = FALSE
O=C(Nc1nc2ccc([N+](=O)[O-])cc2s1)Nc1ccccc1F = TRUE
S=C(NCCc1ccccc1)Nc1ccc(OCc2nc3ccc(Cl)cc3[nH]2)cc1 = TRUE

For `COc1ccc(N=Nc2c(N)nn3c(N)c(C#N)c(-c4ccc(C)cc4)nc23)cc1` , what call appears in the results of this test?
FALSE

For `Cc1ccc(N=Nc2c(N)nn3c(-c4cc5cc(Br)ccc5oc4=O)ccnc23)cc1` , what call appears in the results of this test?
TRUE

For `COc1cc2cc(C(=O)N3C[C@@H](CCl)c4c3cc(OC(=O)N(CCC(=O)N3CCN(C)CC3)C3CCCCC3)c3ccccc43)[nH]c2c(OC)c1OC` , what call appears in the results of this test?
TRUE

For `CN1CCN(C(=O)Oc2cc3c(c4ccccc24)[C@H](CCl)CN3C(=O)c2cc3cc(OCCCN4CCC4)ccc3[nH]2)[C@H]2CSSC[C@H]21` , what call appears in the results of this test?
TRUE
